Assay: Solvent solubility evaluation in o-dichlorobenzene
Type: physicochemical
Details: heated at 100° C., visual confirmation of dissolution, (w/Vd)×100
Reported endpoint: Solubility (%)
Unit % implied. Number only.

Item under review: CCCCCCCCN1C(=O)c2cnc3c4ccc5c6c(cnc(c7ccc1c2c73)c64)C(=O)N5CCCCCCCC . Reported Solubility (%)?
0.58

Item under review: CCCCCCCCN1C(=O)c2ccc3c4ncc5c6c(ccc(c7ncc(c2c37)C1=O)c64)C(=O)N(CCCCCCCC)C5=O [Compound (X), reference compound] . Reported Solubility (%)?
0.019

Item under review: CCCN1C(=O)c2cnc3c4c(C#N)cc5c6c(cnc(c7c(C#N)cc1c2c37)c64)C(=O)N5CCC . Reported Solubility (%)?
0.027

Item under review: CCCCCCCCN1C(=S)c2cnc3c4ccc5c6c(cnc(c7ccc1c2c73)c64)C(=S)N5CCCCCCCC . Reported Solubility (%)?
0.49

Item under review: CCCCCCN1C(=O)c2cnc3c4c(C#N)cc5c6c(cnc(c7c(C#N)cc1c2c37)c64)C(=O)N5CCCCCC . Reported Solubility (%)?
0.52
